Collected Hb values appear next to each entry.
# Species on record: Rattus norvegicus
# experiment.notes: Open TG-GATES - Regimen: Daily Repeat
# Assay type: toxicity, organism-based, Sprague-Dawley
# Set-up: regimen Daily Repeat, gender Male, age 6 weeks
# test.context: in vivo, po, 0 mg/kg, 72 h, tissue Blood, route gavage, dose level Control, time 3 day
Respond with the bare value in g/dL.

# example entries with known answers
{"molecule": "CC[C@H]1[C@@H]2C[C@H]3[C@@H]4N(C)c5ccccc5[C@]45C[C@@H]([C@@H]2[C@H]5O)N3[C@@H]1O [AJMALINE]", "Hb, g/dL": 13}
{"molecule": "CN(C)CCC=C1c2ccccc2COc2ccccc21 [DOXEPIN]", "Hb, g/dL": 13.4}
{"molecule": "CN(C)C(=N)N=C(N)N [METFORMIN]", "Hb, g/dL": 13.1}
{"molecule": "CCc1oc2ccccc2c1C(=O)c1cc(Br)c(O)c(Br)c1 [BENZBROMARONE]", "Hb, g/dL": 14.5}
{"molecule": "ClC(Cl)(Cl)Cl [CARBON TETRACHLORIDE]", "Hb, g/dL": 13.7}
{"molecule": "O=NN(CCCl)C(=O)NC1CCCCC1 [LOMUSTINE]", "Hb, g/dL": 13.5}
{"molecule": "CCC1(c2ccccc2)C(=O)NC(=O)NC1=O [PHENOBARBITAL]", "Hb, g/dL": 13.2}
{"molecule": "CC1=C(CC(=O)O)c2cc(F)ccc2/C1=C\\c1ccc([S+](C)[O-])cc1 (stereo not given)", "Hb, g/dL": 14.3}

Prompt line: // lookup Hb for CCCCc1oc2ccccc2c1C(=O)c1cc(I)c(OCCN(CC)CC)c(I)c1 [AMIODARONE]
Response line: 13.5

Prompt line: // lookup Hb for OCCOCCN1CCN(C(c2ccccc2)c2ccc(Cl)cc2)CC1 (stereo not given) [HYDROXYZINE]
Response line: 12.9

====

# Organism: Rattus norvegicus
# experiment.notes: Open TG-GATES - Regimen: Single
# Type: toxicity, organism-based, Sprague-Dawley
# Design: regimen Single, gender Male, age 6 weeks
# test.context: in vivo, po, 0 mg/kg, 3 h, tissue Liver, route gavage, dose level Control
recorded.metric: LIVER (g)
Respond with the bare value in g.

# example entries with known answers
{"compound": "CC[C@H]1[C@@H]2C[C@H]3[C@@H]4N(C)c5ccccc5[C@]45C[C@@H]([C@@H]2[C@H]5O)N3[C@@H]1O", "recorded.metric": "LIVER", "observed.value": 9.4}
{"compound": "CC1=C(CC(=O)O)c2cc(F)ccc2/C1=C\\c1ccc([S+](C)[O-])cc1 (centres undefined)", "recorded.metric": "LIVER", "observed.value": 9.3}
{"compound": "CC(C)N(CCC(C(N)=O)(c1ccccc1)c1ccccn1)C(C)C (centres undefined) [DISOPYRAMIDE]", "recorded.metric": "LIVER", "observed.value": 9.6}

Please find the next compound below.
Prompt line: // lookup LIVER for `CCC1(c2ccccc2)C(=O)NC(=O)NC1=O`
Response line: 10.2

====

# Species on record: Rattus norvegicus
# experiment.notes: Open TG-GATES - Regimen: Daily Repeat
# Type: toxicity, organism-based, Sprague-Dawley
# Set-up: regimen Daily Repeat, gender Male, age 6 weeks
# test.context: in vivo, po, 0 mg/kg, […], tissue Plasma, route gavage, dose level Control, time 7 day
Collected DBIL values appear next to each entry.
Record the result as number plus unit.

# example entries with known answers
{"compound": "OCCOCCN1CCN(C(c2ccccc2)c2ccc(Cl)cc2)CC1 (stereo unspecified) [HYDROXYZINE]", "DBIL": "0.016 mg/dL"}
{"compound": "O=NN(CCCl)C(=O)NC1CCCCC1", "DBIL": "0.012 mg/dL"}
{"compound": "CC1=C(CC(=O)O)c2cc(F)ccc2/C1=C\\c1ccc([S+](C)[O-])cc1 (stereo unspecified)", "DBIL": "0.012 mg/dL"}
{"compound": "CCc1oc2ccccc2c1C(=O)c1cc(Br)c(O)c(Br)c1", "DBIL": "0.02 mg/dL"}

Please find the next compound below.
Prompt line: // lookup DBIL for CN(C)CCC=C1c2ccccc2COc2ccccc21 [DOXEPIN]
Response line: 0.018 mg/dL

====

# Species: Rattus norvegicus
# experiment.notes: Open TG-GATES - Regimen: Single
# Format: toxicity, organism-based, Sprague-Dawley
# Design: regimen Single, gender Male, age 6 weeks
# test.context: in vivo, po, 0 mg/kg, 24 h, tissue Plasma, route gavage, dose level Control
Consider the cut-off 4 meq/L. If the recorded K is strictly smaller, the label is Yes; if not, the label is No.

Use the examples below as a reference point.
{"molecule": "O=NN(CCCl)C(=O)NC1CCCCC1", "category": "No"}
{"molecule": "OCCOCCN1CCN(C(c2ccccc2)c2ccc(Cl)cc2)CC1 (stereo unspecified) [HYDROXYZINE]", "category": "No"}
{"molecule": "CCc1oc2ccccc2c1C(=O)c1cc(Br)c(O)c(Br)c1", "category": "No"}
{"molecule": "ClC(Cl)(Cl)Cl [CARBON TETRACHLORIDE]", "category": "Yes"}

Attention now turns to another entry.
Prompt line: Does `O=NN1CCOCC1` have K strictly under 4 meq/L?
Response line: No

====

# Species: Rattus norvegicus
# experiment.notes: Open TG-GATES - Regimen: Daily Repeat
# Format: toxicity, organism-based, Sprague-Dawley
# Set-up: regimen Daily Repeat, gender Male, age 6 weeks
# test.context: in vivo, po, 0 mg/kg, […], tissue Blood, route gavage, dose level Control, time 14 day
recorded.metric: Lym (%)
Respond with the bare value in %.

# example entries with known answers
{"molecule": "CN(C)CCC=C1c2ccccc2COc2ccccc21 [DOXEPIN]", "observed.value": 77.2}
{"molecule": "OCCOCCN1CCN(C(c2ccccc2)c2ccc(Cl)cc2)CC1 (stereo unspecified) [HYDROXYZINE]", "observed.value": 75.4}
{"molecule": "CC(C)N(CCC(C(N)=O)(c1ccccc1)c1ccccn1)C(C)C (stereo unspecified) [DISOPYRAMIDE]", "observed.value": 80.8}
{"molecule": "CCc1oc2ccccc2c1C(=O)c1cc(Br)c(O)c(Br)c1", "observed.value": 77.4}

Prompt line: // lookup Lym for `CCCCc1oc2ccccc2c1C(=O)c1cc(I)c(OCCN(CC)CC)c(I)c1`
Response line: 81.4

Prompt line: // lookup Lym for `CCC1(c2ccccc2)C(=O)NC(=O)NC1=O`
Response line: 88.2

====

Collected Eos values appear next to each entry.
# Organism: Rattus norvegicus
# experiment.notes: Open TG-GATES - Regimen: Single
# Format: toxicity, organism-based, Sprague-Dawley
# Parameters: regimen Single, gender Male, age 6 weeks
# test.context: in vivo, po, 0 mg/kg, 9 h, tissue Blood, route gavage, dose level Control
Respond with the bare value in %.

{"compound": "CC[C@H]1[C@@H]2C[C@H]3[C@@H]4N(C)c5ccccc5[C@]45C[C@@H]([C@@H]2[C@H]5O)N3[C@@H]1O", "observed.value": 1}
{"compound": "CC1=C(CC(=O)O)c2cc(F)ccc2/C1=C\\c1ccc([S+](C)[O-])cc1 (stereo not given)", "observed.value": 0.8}
{"compound": "CCC1(c2ccccc2)C(=O)NC(=O)NC1=O", "observed.value": 1.2}
{"compound": "CCc1oc2ccccc2c1C(=O)c1cc(Br)c(O)c(Br)c1", "observed.value": 0.8}
{"compound": "O=NN(CCCl)C(=O)NC1CCCCC1", "observed.value": 0.8}

Prompt line: // lookup Eos for CN(C)CCC=C1c2ccccc2COc2ccccc21 [DOXEPIN]
Response line: 1

Prompt line: // lookup Eos for CC(C)N(CCC(C(N)=O)(c1ccccc1)c1ccccn1)C(C)C (stereo not given) [DISOPYRAMIDE]
Response line: 0.4

Prompt line: // lookup Eos for ClC(Cl)(Cl)Cl [CARBON TETRACHLORIDE]
Response line: 0.8

Prompt line: // lookup Eos for OCCOCCN1CCN(C(c2ccccc2)c2ccc(Cl)cc2)CC1 (stereo not given) [HYDROXYZINE]
Response line: 0.8

Prompt line: // lookup Eos for `CN(C)C(=N)N=C(N)N`
Response line: 1

====

Collected Hb values appear next to each entry.
# Organism: Rattus norvegicus
# experiment.notes: Open TG-GATES - Regimen: Single
# Type: toxicity, organism-based, Sprague-Dawley
# Parameters: regimen Single, gender Male, age 6 weeks
# test.context: in vivo, po, 0 mg/kg, 24 h, tissue Blood, route gavage, dose level Control

Prompt line: // lookup Hb for ClC(Cl)(Cl)Cl [CARBON TETRACHLORIDE]
Response line: 13.7 g/dL

Prompt line: // lookup Hb for `O=NN1CCOCC1`
Response line: 12.5 g/dL

Prompt line: // lookup Hb for `CC[C@H]1[C@@H]2C[C@H]3[C@@H]4N(C)c5ccccc5[C@]45C[C@@H]([C@@H]2[C@H]5O)N3[C@@H]1O`
Response line: 12.6 g/dL

Prompt line: // lookup Hb for `CCc1oc2ccccc2c1C(=O)c1cc(Br)c(O)c(Br)c1`
Response line: 13.9 g/dL

Prompt line: // lookup Hb for `O=NN(CCCl)C(=O)NC1CCCCC1`
Response line: 13 g/dL

Prompt line: // lookup Hb for CN(C)CCC=C1c2ccccc2COc2ccccc21 [DOXEPIN]
Response line: 13 g/dL

Prompt line: // lookup Hb for CC(C)N(CCC(C(N)=O)(c1ccccc1)c1ccccn1)C(C)C (stereo unspecified) [DISOPYRAMIDE]
Response line: 13.2 g/dL

Prompt line: // lookup Hb for `CN(C)C(=N)N=C(N)N`
Response line: 13 g/dL
